Measured protein stability index by item
B1: CHMP4C (parent)
chain: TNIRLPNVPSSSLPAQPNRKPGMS

- Variants of: B1
- measurement description: protein stability index of a GFP-peptide fusion (GPS, HEK-293T) (PSI 1-6); higher = more stable;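 further: lentivirally expressed fusions sorted by FACS into six bins by GFP to DsRed ratio, PSI derived from sequencing read proportions per bin multiplied by bin number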
- test settings: c terminus: a fixed tail appended
Response field accepts a number only; no unit should be typed.

Some solved cases for reference:
[
  {
    "mutation descriptor": "L5Y",
    "quantitative readout": 4.58
  },
  {
    "mutation descriptor": "A15N",
    "quantitative readout": 4.44
  },
  {
    "mutation descriptor": "R19K",
    "quantitative readout": 4.33
  },
  {
    "mutation descriptor": "S24K",
    "quantitative readout": 4.94
  },
  {
    "mutation descriptor": "N7V",
    "quantitative readout": 4.45
  },
  {
    "mutation descriptor": "N2C",
    "quantitative readout": 3.87
  },
  {
    "mutation descriptor": "P17A",
    "quantitative readout": 3.6
  },
  {
    "mutation descriptor": "S24W",
    "quantitative readout": 3.8
  },
  {
    "mutation descriptor": "N2T",
    "quantitative readout": 4.59
  },
  {
    "mutation descriptor": "P6W",
    "quantitative readout": 3.34
  }
]

Quick one: protein stability index for G22T ?
4.21

Quick one: protein stability index for L13Q ?
4.09

Quick one: protein stability index for P9M ?
4.36

Quick one: protein stability index for N2L ?
3.44
